Reported melting point is given for each of the following compounds.

[[record]]
smiles_representation = "Cc1c(C(F)(F)F)nc(-c2ccccc2O)[nH]c1=O"
readout_value = "270 to 271 °C"

[[record]]
smiles_representation = "COc1ccccc1-c1nc(C(F)(F)F)c(C)c(=O)[nH]1"
readout_value = "158 to 160 °C"

[[record]]
smiles_representation = "Cc1c(C(F)(F)F)nc(C2CCCCC2)[nH]c1=O"
readout_value = "169 to 170 °C"

[[record]]
smiles_representation = "Cc1c(C(F)(F)F)nc(-c2ncccc2O)[nH]c1=O"
readout_value = "176 to 178 °C"

[[record]]
smiles_representation = "Cc1cccc(C)c1-c1nc(C(F)(F)F)c(C)c(=O)[nH]1"
readout_value = "174 to 175 °C"

[[record]]
smiles_representation = "Cc1c(C(F)(F)F)nc(-c2ncccn2)[nH]c1=O"
readout_value = "229 to 230 °C"

[[record]]
smiles_representation = "O=c1[nH]c(-c2ccccn2)nc(C(F)(F)F)c1-c1ccc(F)cc1"
readout_value = "217 to 220 °C"

[[record]]
smiles_representation = "O=c1[nH]c(-c2ccccn2)nc(C(F)(F)F)c1-c1ccccc1"
readout_value = "258 to 259 °C"


# input Would you kindly share the measured melting point for O=c1[nH]c(-c2ccccn2)nc(C(F)(F)F)c1C1CCCCC1 ?
# output 220 to 221 °C

# input Need melting point, item COc1cccnc1-c1nc(C(F)(F)F)cc(=O)[nH]1
# output 178 to 179 °C

# input # get_value(readout='melting point', item= CCc1c(C(F)(F)F)nc(-c2ccccn2)[nH]c1=O )
# output 122 to 124 °C

# input Which melting point is reported for this compound? O=c1cc(C(F)(F)F)nc(-c2ccccc2)[nH]1
# output 225 to 227 °C

# input Form field: reported melting point of Cc1cnc(-c2ccccn2)[nH]c1=O
# output 148 to 149 °C

# input Can you look up the measured melting point of O=c1cc(C(F)(F)F)nc(C2CCCCC2)[nH]1 for me?
# output 198 to 199 °C

# input What value of melting point has been reported for the following compound? O=c1cc(C(F)(F)F)nc(-c2ncccn2)[nH]1
# output 236 to 238 °C

# input Field request: melting point | item: COc1cccnc1-c1nc(C(F)(F)F)c(C)c(=O)[nH]1
# output 164 to 165 °C

# input Can you look up the measured melting point of Cc1c(C(F)(F)F)nc(-c2ccccc2F)[nH]c1=O for me?
# output 139 to 141 °C

# input Any idea what melting point was measured for Cc1cccc(C)c1-c1nc(C(F)(F)F)cc(=O)[nH]1 ?
# output 201 to 202 °C

----------
# Tested on: M. tuberculosis H37Rv
# ASSAY_NOTES: Minimum inhibitory concentration (IC90) against fluorescent M. tuberculosis in liquid culture
# MEASUREMENT_SETUP: MTB IC90 assay; Figure 1 primary hits and reference drugs in this assay
MEASURE_NAME: MIC (µM)
Supply the numeric figure in µM, leaving out any unit text.

Solved entries:
[[record]]
compound = "Cc1c(C(F)(F)F)nc(-c2cc(COc3ccc(O)cc3)ccn2)[nH]c1=O [Compound 3]"
measure_name = "MIC"
readout_value = 7.6

[[record]]
compound = "O=c1cc(C(F)(F)F)nc(-c2cc(CCc3ccc(O)cc3)ccn2)[nH]1 [Compound 4]"
measure_name = "MIC"
readout_value = 4.2

[[record]]
compound = "N#Cc1ccc(OCc2ccnc(-c3nc(C(F)(F)F)cc(=O)[nH]3)c2)cc1 [Compound 15]"
measure_name = "MIC"
readout_value = 5.3


# input So what's the measured MIC for this one? N#Cc1ccc(COc2ccnc(-c3nc(C(F)(F)F)cc(=O)[nH]3)c2)cc1 [Compound 9]
# output 3.7

# input Would you mind telling me what MIC value was observed for COC(=O)Cc1ccc(OCc2ccnc(-c3nc(C(F)(F)F)cc(=O)[nH]3)c2)cc1 [Compound 7] ?
# output 3.3

# input Dear colleague, I am looking for the recorded MIC of the following compound: CCCc1c(C(F)(F)F)nc(-c2ccccn2)[nH]c1=O [Compound 13]
# output 10
